assay: gradient 5% acetonitrile 3 min, to 50% in 2 min, to 85% in 15 min, held 3 min, 100 µL/min; conditions: column: Zorbax Extend-C18 2.1 x 50 mm; eluents: water / acetonitrile, 0.1% formic acid
readout-kind: RP-LC retention time (s)

Check out these entries, answers already filled in.
Report measured RP-LC retention time; entry is "Cc1sc(NC(=O)c2ccccc2F)nc1-c1ccc2c(c1)NC(=O)CO2"
878

Report RP-LC retention time for "Cc1ccccc1Nc1c(-c2ccccc2O)nc2ccc(Cl)cn12"
1040

Indicate its recorded RP-LC retention time; the compound in question is "c1cncc(CN2CCC(n3ncc4c(N5CCOCC5)nc(-c5ccc6[nH]ccc6c5)nc43)CC2)c1"
675

Provide measured RP-LC retention time value, entry: "Cc1ccc(CN(Cc2cc(=O)n3cc(Cl)ccc3n2)CC(C)C)cc1"
624

Report measured RP-LC retention time; entry is CN1CCN(CCCNC(=O)CCCN2C(=O)C(c3ccccc3)Oc3cccnc32)CC1 (centres undefined)
595

Entry "Cc1cc(NC(=O)N2CCC(n3cnc4cccnc43)CC2)ccc1Br" needs its RP-LC retention time filled in; supply it.
684

Provide only the value of recorded RP-LC retention time for "COc1ccc(CN2CN=C(Nc3nc(C)c4cccc(OC)c4n3)NC2)cc1"
750

a: CC1=NOC(C)(CNC(=O)NC2CCCC2)C1 (centres undefined)
b: CCOC(=O)c1c(S(=O)(=O)N2CCC(C(=O)Nc3cccc(SC)c3)CC2)c(C)n(C)c1C
Look at a and b . Which one has the lower recorded RP-LC retention time number? Select an item and report its label.
a

====

test: gradient 5% acetonitrile 3 min, to 50% in 2 min, to 85% in 15 min, held 3 min, 100 µL/min; conditions: column: Zorbax Extend-C18 2.1 x 50 mm; eluents: water / acetonitrile, 0.1% formic acid
readout-kind: RP-LC retention time (s)

Example compounds with recorded RP-LC retention time:
For the compound "O=C1COc2cc(S(=O)(=O)N3CCC(C(=O)NC4CCCCC4)CC3)c(Cl)cc2N1" , give its measured RP-LC retention time value.
772

Using known records, supply RP-LC retention time for O=C(CC1CCCCC1)NC1CCCN(c2ccc(=O)n(CC3CC3)n2)C1 (stereo not given)
836

Assign RP-LC retention time to the following record: "NS(=O)(=O)c1ccc(NC(=O)c2ccc(Br)cc2F)cc1"
729

P: COc1ccc(N2CC(C(=O)N3CCC(c4noc(-c5ccccc5)n4)CC3)CC2=O)cc1 (stereo not given)
Q: Cn1c(=O)c(C(=O)N2CCN(c3ccccn3)CC2)nc2ccccc21
Which one would you say has the larger RP-LC retention time value: P , or Q ? Kindly give the label for the entry you pick.
Q

====

assay: gradient 5% acetonitrile 3 min, to 50% in 2 min, to 85% in 15 min, held 3 min, 100 µL/min; settings: column: Zorbax Extend-C18 2.1 x 50 mm; eluents: water / acetonitrile, 0.1% formic acid
readout-kind: RP-LC retention time (s)

Use the examples below as a reference point.
Give RP-LC retention time for the following molecule: "CCCCN(C)C(=O)Cn1c(CO)nc2ccccc21"
589

Give recorded RP-LC retention time. CCCCN1C(=O)C(C)(C(=O)Nc2ccccc2)Oc2cccnc21 (stereo not given)
999

# return recorded RP-LC retention time for input "CCCCN1CCN(C(=O)c2cn(-c3cc(N4CCSCC4)ncn3)cn2)CC1"
639

Please look at this molecule and report its RP-LC retention time: COC(=O)c1cc(S(=O)(=O)N2CCCC2C(=O)Nc2cccc(OC)c2)cn1C (stereo not given)
826

Give the reported value of RP-LC retention time for this record: O=C(NCC(c1cccnc1)c1c[nH]c2ccccc12)Nc1ccc(F)cc1F (stereo not given)
674

a: Cc1sc2ccn(CC(C)C)c(=O)c2c1C(=O)N1CCN(C2CCCCC2)CC1
b: CCCOc1ccc(CNC(=O)c2snc(C(=O)NCc3cccc(OC)c3)c2N)cc1
Between a and b , whose measured RP-LC retention time reads higher? API: response body contains the label of the selected item.
b
(b: 1140 s, a: 642 s)

====

test: gradient 5% acetonitrile 3 min, to 50% in 2 min, to 85% in 15 min, held 3 min, 100 µL/min; details: column: Zorbax Extend-C18 2.1 x 50 mm; eluents: water / acetonitrile, 0.1% formic acid
readout-kind: RP-LC retention time (s)

a: Clc1cccc(Nc2nnc(-c3ccccc3)c3ccccc23)c1
b: CCOc1ccccc1NC(=O)Cn1nc(N2CCC(C)CC2)c2ccccc2c1=O
Lowest RP-LC retention time? choose a or b When you have decided, please share the label of that item.
a

P: O=C(Nc1ccc2c(c1)CCC2)C1CCc2nc(N3CCOCC3)ncc2C1 (centres undefined)
Q: Cc1ccc(Sc2nccnc2N2CCCC(C(=O)NC3CCCCCC3)C2)cc1 (centres undefined)
Which of these two has the smaller recorded RP-LC retention time: P or Q ? Indicate your choice by writing its label.
P
(P: 793 s, Q: 1250 s)

====

experiment: gradient 5% acetonitrile 3 min, to 50% in 2 min, to 85% in 15 min, held 3 min, 100 µL/min; conditions: column: Zorbax Extend-C18 2.1 x 50 mm; eluents: water / acetonitrile, 0.1% formic acid
readout-kind: RP-LC retention time (s)

Note down RP-LC retention time recorded for "CS(=O)(=O)N1CCN(C(=O)Cc2csc(Nc3ncccn3)n2)CC1"
601

Tell me its RP-LC retention time given Cc1nc(-c2csc(S(=O)(=O)N3CCCC(C(=O)Nc4cc(F)ccc4F)C3)c2)no1 (stereo not given) as the entry.
996

Check the records and state RP-LC retention time for "O=C(Nc1nnc(Cc2cccs2)o1)c1cc(Cl)sc1Cl"
831

Retrieve RP-LC retention time measured for "CCOC(=O)CNC(=O)N1CCN(c2nc3ccccc3n2CC)CC1" and print it.
602

Tell me RP-LC retention time reported for "Clc1cccc(N2CCN(c3ncnc4[nH]ncc34)CC2)c1"
725

Query RP-LC retention time for "Cc1cccc(NC(=O)Cn2nc(N3CCC(C)CC3)c3ccccc3c2=O)c1"
1160

I: O=C(NCc1ccc(Br)cc1)C1CCCN(c2nccnc2Sc2ccccc2)C1 (stereo not given)
II: COc1ccc(-c2cc(OC)c3cc(NC(=O)c4cccs4)ccc3n2)cc1
Hey, between I and II which has a smaller measured RP-LC retention time? // output: label of the selected item
II
(II: 726 s, I: 1110 s)

A: O=C(c1ccc(Br)cc1)N1CCc2nc(-c3ccc(Cl)cc3)ncc2C1
B: COc1ccc(-c2noc(C3CC(=O)N(c4ccc(OC)c(OC)c4)C3)n2)c(OC)c1 (stereo not given)
Identify the entry with the smaller RP-LC retention time: A or B . Indicate your choice by writing its label.
B
(B: 786 s, A: 1160 s)

====

assay: gradient 5% acetonitrile 3 min, to 50% in 2 min, to 85% in 15 min, held 3 min, 100 µL/min; details: column: Zorbax Extend-C18 2.1 x 50 mm; eluents: water / acetonitrile, 0.1% formic acid
readout-kind: RP-LC retention time (s)

Please give measured RP-LC retention time of the following entry: O=C(Nc1ccc2c(c1)CC(C(=O)NCCCc1ccccc1)CO2)c1cccs1 (stereo not drawn)
900

a: COc1ccc(-c2noc(C3CC(=O)N(c4ccccc4)C3)n2)c(OC)c1 (stereo not drawn)
b: Cc1nc(-c2cc(S(=O)(=O)N3CCN(c4ccccc4Cl)CC3)c(C)s2)cs1
c: CCc1nnc2cc(N3CCN(Cc4ccc(OC(C)C)cc4)CC3)cnn12
Task field, ranking: reported RP-LC retention time, descending order. In your reply, arrange the labels in the requested order.
b, a, c

P: COC(=O)c1c(NC(=O)N2CCCN(c3nc4cccnc4s3)CC2)sc2c1CCCC2
Q: Cc1noc(CNC(=O)C2CCN(C(=O)Cc3ccccc3Cl)CC2)n1
Could you check which of P and Q has a smaller value for RP-LC retention time? // respond with label for picked entry
Q

I: O=C(NCc1ccc2c(c1)OCO2)C1CCCN(C(=O)c2cc(-c3ccncc3)n[nH]2)C1 (stereo not drawn)
II: CCc1ccc(S(=O)(=O)N2CCC(n3c(-c4ccoc4)nc4cccnc43)C2)cc1 (stereo not drawn)
III: Cc1cc(C)cc(-c2nc(-c3cccc(-c4ccnn4C)c3)no2)c1
Falling order of RP-LC retention time, please. Answer by listing the labels in the requested order.
III, II, I

1: CCN(CC)CCCNC(=O)c1cc2n(n1)CC(C)(C(=O)NCc1ccc(F)cc1)N(C)C2=O (stereo not drawn)
2: COc1ccccc1OCC(=O)NCCc1sc(-c2ccc(Cl)cc2)nc1C
# return whichever of 1 and 2 has the smaller RP-LC retention time Returns: label corresponding to the selected item.
1

====

assay: gradient 5% acetonitrile 3 min, to 50% in 2 min, to 85% in 15 min, held 3 min, 100 µL/min; details: column: Zorbax Extend-C18 2.1 x 50 mm; eluents: water / acetonitrile, 0.1% formic acid
readout-kind: RP-LC retention time (s)

Complete the entry with RP-LC retention time for "CCOC(=O)Cn1c(=O)c2cnc(-c3ccc(Cl)cc3)nc2n(C)c1=O"
1130

Consider the compound CC1CCN(c2ncc3c(n2)CCC(C(=O)NCCN2CCc4ccccc4C2)C3)CC1 (centres undefined) and give its recorded RP-LC retention time.
654

Please look at this compound and report its RP-LC retention time: CCC(C)NC(=O)C1CCN(S(=O)(=O)c2c(C)nn(-c3ccc(F)cc3)c2C)CC1 (centres undefined)
842

In one line, give reported RP-LC retention time of the entry "CCOc1ccc(S(=O)(=O)N2CCC(C(=O)Nc3ccc(F)c(Cl)c3)CC2)cc1" .
1030

Return reported RP-LC retention time. Input compound: "O=c1ccc(-c2ccc(F)cc2)nn1CCc1nc(-c2ccc(F)c(Br)c2)no1"
1120

A: O=C1COc2ccc(Cl)cc2N1Cc1nc(-c2ccc(F)cc2)no1
B: COc1ccc(OC)c(NC(=O)Nc2c(-c3ccccc3)nc3ccccn23)c1
Between A and B , which one shows the smaller RP-LC retention time number? Identify your selection by its label.
B
